assayed system: T1, 4H310-AA
T1 chain: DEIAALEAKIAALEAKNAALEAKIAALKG
procedure text: two-hybrid library CCmax;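 further: natural log of median RNA to DNA barcode read ratio; higher means stronger binding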
experimental setup: mean of both orientations
recorded endpoint: interaction score
Could you respond with only the numeric value?

-- ask // query interaction score value for entry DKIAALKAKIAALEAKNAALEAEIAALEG [4H2865-AA]
-- reply 1.7

-- ask // returns reported interaction score for input DKIAALKAKNAALKAEIAALEAEIAALEG [4H3009-AA]
-- reply -0.567

-- ask May I ask what interaction score has been recorded for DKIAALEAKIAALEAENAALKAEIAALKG [4H2330-AA] ?
-- reply -0.633

-- ask Given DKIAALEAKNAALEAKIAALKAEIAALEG [4H2473-AA] , state its recorded interaction score.
-- reply -0.305

-- ask Give the measured interaction score of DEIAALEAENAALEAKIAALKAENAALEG [4H171-AA] .
-- reply -1.66
